TEST: chemical genetic growth profiling, strain panel (AID 1159580);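 note: tested at 20 µM; growth read once vehicle control cultures reached saturation at 30 °C; 1 = growth at the plate median or of vehicle wells; lower values mean less growth of the strain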
COND: S. cerevisiae deletion strains, growth OD, locus YML124C, strain tub3, hits give low values
About 2,000 (36%) of roughly 5,500 compounds were called active. Not shown: some 18% with an inconclusive outcome. The list shows a part of the results.
normalized growth values by entry
Could you respond with only the numeric value?

Record excerpt, results attached:
CCOc1ccc2c(c1)C(C)=CC(C)(C)N2 : 0.989
CC(Cc1ccc(O)c(O)c1)(NN)C(=O)O (configuration not stated) : 1.01
CCOC(=O)c1ccc(N)cc1 : 0.992

stdin: // normalized growth lookup, key: Nc1c(Br)cc(Br)cc1CNC1CCC(O)CC1 (configuration not stated)
stdout: 0.996

stdin: Subsequent entry: COc1c(C2COc3cc4c(cc3C2=O)CC(O)C(C)(C)O4)ccc2c1CCC(C)(C)O2 (configuration not stated)
stdout: 1

stdin: Subsequent entry: `CN(Cc1cc(Br)cc(Br)c1N)C1CCCCC1`
stdout: 1.03

stdin: Subsequent entry: `C[C@](N)(Cc1ccc(O)c(O)c1)C(=O)O`
stdout: 0.993

---

TEST: chemical genetic growth profiling, strain panel (AID 1159580);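 note: tested at 20 µM; growth read once vehicle control cultures reached saturation at 30 °C; 1 = growth at the plate median or of vehicle wells; lower values mean less growth of the strain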
COND: S. cerevisiae deletion strains, growth OD, locus YBR021W, strain FUR4, hits give low values
Out of some 5,500 compounds screened, about 2,000 (36%) were called active. Inconclusive results (about 18%) are left out. The list shows a part of the results.
MEASURED_ATTRIBUTE: normalized growth
Could you respond with only the numeric value?

Record excerpt, results attached:
Nc1nccs1 : 1.03
COC(=O)[C@H]1[C@H]2C[C@@H]3c4[nH]c5cc(OC)ccc5c4CCN3C[C@H]2C[C@@H](OC(=O)c2cc(OC)c(OC)c(OC)c2)[C@@H]1OC : 0.981
CC12CCCC(O)(C1)C1CC(C)(C)C1CC2 (configuration not stated) : 1
CC1=C(/C=C/C(C)=C/C=C/C(C)=C/C(=O)O)C(C)(C)CCC1 : 1.04
CC1(C)CC2C1CCC1(C)OC2(C)CCC1O (configuration not stated) : 1.03

stdin: // normalized growth lookup, key: `CC1=C(/C=C/C(C)=C/C=C/C(C)=C/CO)C(C)(C)CCC1`
stdout: 1.01

stdin: Subsequent entry: `CC1=C(/C=C/C(C)=C/C=C/C(C)=C/C=C/C=C(C)/C=C/C=C(C)/C=C/C2=C(C)CCCC2(C)C)C(C)(C)CCC1`
stdout: 0.99

---

TEST: chemical genetic growth profiling, strain panel (AID 1159580);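 note: tested at 20 µM; growth read once vehicle control cultures reached saturation at 30 °C; 1 = growth at the plate median or of vehicle wells; lower values mean less growth of the strain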
COND: S. cerevisiae deletion strains, growth OD, locus YLR221C, strain rsa3, hits give low values
Out of some 5,500 compounds screened, about 2,000 (36%) were called active. Not shown: some 18% with an inconclusive outcome. This is one part of the list.
normalized growth under 1 gets yes, anything at or over 1 gets no.

Some solved cases for reference:
Nc1nc(N)c2nc(CNc3ccc(C(=O)NC(CCC(=O)O)C(=O)O)cc3)cnc2n1 (stereo unspecified) : no
CCC(COC(=O)c1cc(OC)c(OC)c(OC)c1)(c1ccccc1)N(C)C (stereo unspecified) : yes
COP(=S)(OC)Oc1ccc(SC)c(C)c1 : yes

stdin: Determine whether this compound shows normalized growth lower than 1 (ties excluded): CN(Cc1cnc2nc(N)nc(N)c2n1)c1ccc(C(=O)NC(CCC(=O)O)C(=O)O)cc1 (stereo unspecified)
stdout: yes
